assay: inhibitors of TNFa-induced NFkB p65 translocation, primary screen, imaging, HUVEC, MLSMR starter and 10KST1 sets (AID 438); settings: HUVEC TNFa-induced p65 nuclear translocation; at 2 µM, stronger effect = higher value unless noted;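 further: compound added about 3h40 before a 20 min TNFalpha stimulation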;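 on inhibition: signal is the nuclear over cytoplasmic p65 intensity ratio per well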
Calls of active or inactive are those of the source.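 How the source made its calls: active means inhibition above 20% together with a positive visual image hit; inconclusive means visual image hit but inhibition not above 20%; inactive means no visual image hit.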
outcome measure: inhibition

CC(C)OCCCNC(=O)c1c(N)n(Cc2cccs2)c2nc3ccccc3nc12 :: -9.3% (inactive)
[N-]=[N+]=CC(=O)OC[C@H](N)C(=O)O :: -4% (inactive)
O=C(Cn1cc(C(=O)c2ccccc2)c2ccccc21)NCc1ccco1 :: -1.4% (inactive)
COc1ccc(-n2c(SC)nc3ccccc3c2=O)cc1 :: -3.7% (inactive)
CC(CCc1ccccc1)NC(C)C(O)c1ccc(O)cc1 (stereo unspecified) :: 2% (inactive)
CC(=NCCCN1CCOCC1)c1c(O)n(-c2ccccc2C)c(=O)[nH]c1=O :: 3.3% (inactive)
CCCCn1c(O)c(C=NCCN2CCCCC2)c(=O)[nH]c1=O :: 0.6% (inactive)
CN1C[C@H](CNC(=O)OCc2ccccc2)C[C@@H]2c3cccc4c3c(cn4C)C[C@H]21 :: 2.7% (inactive)
C=CCn1c(O)c(C=NCCN(C)C)c(=O)[nH]c1=O :: -5% (inactive)
CCCCCCn1c(O)c(C=NC2CCN(Cc3ccccc3)CC2)c(=O)[nH]c1=O :: -3.3% (inactive)

// query Which inhibition is listed for CCCCn1c(O)c(C(C)=NCCc2ccccc2)c(=O)[nH]c1=O ?
// result -5.3% (inactive)

// query Which inhibition is listed for COCCOC(=O)C1=C(N)Oc2c(c(=O)oc3ccccc23)[C@@]12C(=O)Nc1ccccc12 ?
// result -9.7% (inactive)

// query Which inhibition is listed for O=c1[nH]c(=O)n(CCc2ccccc2)c(O)c1C=NCCCn1ccnc1 ?
// result -0.9% (inactive)

// query Which inhibition is listed for CC(C)C(=O)N1CCN(CCN=Cc2c(O)n(C)c(=O)n(C)c2=O)CC1 ?
// result -3.1% (inactive)

// query Which inhibition is listed for Cc1ccc(C2SCC(=O)Nc3c2c(=O)[nH]n3C2CCOC(C)(C)C2)cc1 (stereo unspecified) ?
// result -0.6% (inactive)

// query Which inhibition is listed for O=c1[nH]c(=O)n(Cc2ccco2)c(O)c1C=NCCN1CCOCC1 ?
// result -12.4% (inactive)

// query Which inhibition is listed for C(#CCN1CCOCC1)COCC#Cc1ccccc1 ?
// result 1.2% (inactive)

// query Which inhibition is listed for Cc1ccc2c(c1)[C@@H]1CN(C)CC[C@@H]1N2C(=O)Nc1cccc(C(F)(F)F)c1 ?
// result -9.8% (inactive)

// query Which inhibition is listed for NCCc1ccc(O)cc1 ?
// result 6% (inactive)

// query Which inhibition is listed for CNCCc1c[nH]c2ccccc12 ?
// result -10.3% (inactive)

// query Which inhibition is listed for C=CCn1c(O)c(C(C)=NCCCO)c(=O)[nH]c1=O ?
// result 5.7% (inactive)

// query Which inhibition is listed for CC(C)(C)P(=O)(c1ccncc1)N1CCCC1 (stereo unspecified) ?
// result -2.4% (inactive)

// query Which inhibition is listed for C[C@H]1CCCC(=O)CCC/C=C/c2cc(O)cc(O)c2C(=O)O1 ?
// result 6.1% (inactive)

// query Which inhibition is listed for CC12CCCCC1=[N+]([O-])CN2O (stereo unspecified) ?
// result -10% (inactive)

// query Which inhibition is listed for COC(=O)C(O)(c1c[nH]c2ccccc12)C(F)(F)F (stereo unspecified) ?
// result -0.7% (inactive)

---

Parameter: slope. Scope: all listed entries.
target: Alpha-2C adrenergic receptor (Homo sapiens) (UniProt P18825); test: compounds altering alpha2C-coupled GIRK flux – cell-based, HEK293 alpha2C/GIRK1/2, thallium flux, primary screen (AID 624); conditions: thallium flux BTC fluorescence, at 10 µM, actives lie on both sides;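 further: slope of fluorescence ratio to pre-addition baseline per second over 15 to 24 s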
Sequence (P18825 whole entry, looked up): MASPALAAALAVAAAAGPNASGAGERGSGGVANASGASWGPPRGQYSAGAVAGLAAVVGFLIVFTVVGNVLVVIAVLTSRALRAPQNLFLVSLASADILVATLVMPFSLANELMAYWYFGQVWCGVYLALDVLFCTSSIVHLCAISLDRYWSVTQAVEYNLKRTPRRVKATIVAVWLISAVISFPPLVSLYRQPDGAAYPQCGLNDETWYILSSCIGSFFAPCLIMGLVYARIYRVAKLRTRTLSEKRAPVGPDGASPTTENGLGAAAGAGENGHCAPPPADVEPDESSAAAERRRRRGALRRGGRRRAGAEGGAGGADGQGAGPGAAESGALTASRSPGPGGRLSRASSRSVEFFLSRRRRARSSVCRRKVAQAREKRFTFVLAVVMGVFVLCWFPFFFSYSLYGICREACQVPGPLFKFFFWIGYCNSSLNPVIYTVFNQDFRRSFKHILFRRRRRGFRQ
The source made the active and inactive calls.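 The calls were made as follows: active = fluorescence slope after compound addition differing from the mean of all screened samples at 99.7% confidence, in either direction; inactive = the rest.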

Reference set (6 entries):
CCCCn1c(O)c(C=NCCN2CCCCC2)c(=O)[nH]c1=O :: 0.00621 (inactive)
O=C1C2CCN(CC2)[C@@H]1Cc1ccc2ccccc2c1O :: 0.00747 (inactive)
CC(C)(C)C(O)C(Oc1ccc(Cl)cc1)n1cncn1 (stereo unspecified) :: 0.00646 (inactive)
O=C(c1cccs1)C1CN2CCC1CC2 (stereo unspecified) :: 0.00316 (inactive)
CC(=O)[C@H]1CC[C@H]2[C@@H]3CC[C@H]4C[C@H](O)CC[C@]4(C)[C@H]3C(=O)C[C@]12C :: 0.00562 (inactive)
COc1ccccc1-n1c(O)c(C=NCc2ccc3c(c2)OCO3)c(=O)[nH]c1=O :: 0.00662 (inactive)

// query Which slope is listed for CCCSP1(=S)NCCCO1 (stereo unspecified) ?
// result 0.00464 (inactive)

// query Which slope is listed for CCCCCCC(N)CC(=O)O (stereo unspecified) ?
// result 0.00377 (inactive)

// query Which slope is listed for O=C(C1CCCN(c2nnc(-n3cccc3)s2)C1)N1CCC2(CC1)OCCO2 (stereo unspecified) ?
// result 0.00502 (inactive)

// query Which slope is listed for O=C1CC(N2CCC(n3c(=O)[nH]c4ccccc43)CC2)C(=O)N1c1ccc(F)cc1 (stereo unspecified) ?
// result 0.0029 (inactive)

// query Which slope is listed for CC(C)[C@@]1(NC(=O)[C@@H]2C=C3c4cccc5[nH]cc(c45)C[C@H]3N(C)C2)O[C@@]2(O)[C@@H]3CCCN3C(=O)[C@H](Cc3ccccc3)N2C1=O ?
// result 0.00405 (inactive)

// query Which slope is listed for CCOc1ccc(-n2c(O)c(C=NCCN(CC)CC)c(=O)[nH]c2=O)cc1 ?
// result 0.00486 (inactive)

// query Which slope is listed for O=C1OCCC1NC1=NCCC1 (stereo unspecified) ?
// result 0.00554 (inactive)

---

test: inhibitors of TNFa-induced NFkB p65 translocation, primary screen, imaging, HUVEC, MLSMR starter and 10KST1 sets (AID 438); conditions: HUVEC TNFa-induced p65 nuclear translocation; measured here: nuclei count (cytotoxicity indicator), at 2.08 µM;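 further: compound added about 3h40 before a 20 min TNFalpha stimulation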
outcome measure: cell count

O=C(c1ccc2nc(-c3ccco3)c(-c3ccco3)nc2c1)N1CCC2(CC1)OCCO2 :: 597
COc1ccccc1-n1c(O)c(C=NCc2ccc3c(c2)OCO3)c(=O)[nH]c1=O :: 758
CCNc1ccc(P(=S)(N(C)C)N(C)C)cc1 :: 441
COc1ccc2c(c1OC)C(=O)OC2c1c(O)n(C2CCCCC2)c(=O)[nH]c1=O (centres undefined) :: 572
CCOc1ccccc1-n1c(O)c(C=Nc2c(C)n(C)n(-c3ccccc3)c2=O)c(=O)[nH]c1=O :: 629
CCCNC(=O)c1c(N)n(Cc2ccc3c(c2)OCO3)c2nc3ccccc3nc12 :: 699
CC[C@@H](CO)NC(=O)[C@@H]1C=C2c3cccc4c3c(cn4C)C[C@H]2N(C)C1 :: 540
O=c1c2ccccc2nc(CSc2ncnc3nc[nH]c23)n1-c1ccccc1 :: 546
C=C1CC[C@@]2(O)[C@H]3Cc4ccc(O)c5c4[C@@]2(CCN3CC2CC2)[C@H]1O5 :: 527
C[N+]1(C)[C@@H]2CC(OC(=O)[C@H](CO)c3ccccc3)C[C@H]1[C@@H]1O[C@@H]12 (some centres undefined) :: 542

// query Which cell count is listed for O=C(C(Cc1ccccc1)NS(=O)(=O)c1ccc(F)cc1)N1CCC2(CC1)OCCO2 (centres undefined) ?
// result 381

---

assay: Primary imaging screen for DUSP6 inhibitors that restore phospho-Erk in transfected HeLa cells, chemical complementation (AID 609); details: HeLa MKP-3 transfected, phospho-Erk imaging KS statistic; measured here: nuclear c-Myc green intensity z-score; at 10 µM
Residues, ends and D or L forms follow the SMILES beside them.
// label = Condition met if z-score is not less than 0.9, otherwise Condition not met

See these solved cases before continuing.
CC(C)Cc1[nH]c(=O)c(C#N)c2c1CCC2 :: Condition met
CN1CCc2nc(SCC(=O)OC(C)(C)C)c(C#N)cc2C1 :: Condition not met
CCN(CC)c1ccc(N=Cc2c(O)n(-c3cc(OC)ccc3OC)c(=O)[nH]c2=O)cc1 :: Condition not met
NCC1(CC(=O)O)CCCCC1 :: Condition not met
CCCCc1nc2ccccc2c(=O)n1-c1ccccc1O :: Condition not met
CC(C)[C@@]1(NC(=O)[C@@H]2C[C@@H]3c4cccc5[nH]cc(c45)C[C@H]3N(C)C2)O[C@@]2(O)[C@@H]3CCCN3C(=O)[C@H](Cc3ccccc3)N2C1=O :: Condition not met
CCCCNC(=O)Nc1ccc(C(O)(C(=O)OC)C(F)(F)F)cc1 (centres undefined) :: Condition not met
C[C@H]1OC[C@@H](C[N+](C)(C)C)O1 :: Condition met
OCCOCC#CCN1CCOCC1 :: Condition met
OC(Cc1ccccc1)(c1ccccc1)C1CN2CCC1CC2 (centres undefined) :: Condition met

// query Quick check: does CC(C)C[C@H](NC(=O)[C@@H]1CCCN1C(=O)[C@@H](N)Cc1ccc(O)cc1)C(=O)NCC(N)=O (H-YPLG-NH2) have z-score greater than or equal to 0.9?
// result Condition not met

// query Quick check: does Nc1ncc(P(=S)(N2CCOCC2)N2CCOCC2)s1 have z-score greater than or equal to 0.9?
// result Condition not met

// query Quick check: does COc1ccc2c(c1)c(C(=O)O)c(C)n2CC(C)C have z-score greater than or equal to 0.9?
// result Condition not met

// query Quick check: does CC(=C1C(=O)c2ccccc2C1=O)N1CCN(CCN=Cc2c(O)n(C)c(=O)n(C)c2=O)CC1 have z-score greater than or equal to 0.9?
// result Condition not met

// query Quick check: does CCOc1ccc(-n2c(O)c(C=Nc3ccc(N(CC)CC)cc3)c(=O)[nH]c2=O)cc1 have z-score greater than or equal to 0.9?
// result Condition not met

// query Quick check: does COP(=O)(OC)C(O)C(Cl)(Cl)Cl (centres undefined) have z-score greater than or equal to 0.9?
// result Condition met

// query Quick check: does O=C1CC[C@@]2(O)[C@H]3Cc4ccc(O)c5c4[C@@]2(CCN3CC2CC2)[C@H]1O5 have z-score greater than or equal to 0.9?
// result Condition not met

// query Quick check: does CN(C)[C@@H]1C(=O)C(C(N)=O)=C(O)[C@@]2(O)C(=O)C3=C(O)c4c(O)ccc(Cl)c4[C@@](C)(O)C3C[C@@H]12 (some centres undefined) have z-score greater than or equal to 0.9?
// result Condition met
